Source of measurements: PubChem BioAssay (NCI)

# Test system: RXF 393 renal
# test summary: NCI tumour cell line growth inhibition, 48 h
Field: TGI. Provide a value for each of the compounds that follow.

Q: Could you tell me which TGI is on file for c1cc(N(CCn2cccn2)CCn2cccn2)cc(N(CCn2cccn2)CCn2cccn2)c1 ?
Result: > 100 µM

Q: Could you tell me which TGI is on file for O=C1NC(SSC2=NNC3(C(=O)N2)c2ccccc2-c2ccccc23)=NNC12c1ccccc1-c1ccccc12 ?
Result: > 10 µM

Q: Could you tell me which TGI is on file for Cc1[nH]c2ccccc2c1C(=O)CC1(O)C(=O)Nc2ccccc21 (stereo unspecified) ?
Result: > 100 µM

Q: Could you tell me which TGI is on file for Cn1cc(C2=C(c3cn(CCCCN)c4ccccc34)C(=O)NC2=O)c2ccccc21 ?
Result: > 25 µM

Q: Could you tell me which TGI is on file for COc1ccc2c(CCN)c(C(=O)O)[nH]c2c1 ?
Result: > 100 µM

Q: Could you tell me which TGI is on file for CCOC(=O)c1ccc(Nc2c3c(nc4ccccc24)CCCC3)cc1 ?
Result: > 100 µM

----------
# Test system: NCI-H226 lung
# test summary: NCI tumour cell line growth inhibition, 48 h; in the data active means GI50 below about 0.43 µM; inactive means the rest
Outcomes you can answer with include only these: active, inactive

Q: # lookup: test call for CC(=O)[O][Ga]([Cl])[O]C(C)=O
Result: inactive

Q: # lookup: test call for COc1cccc(-c2cc(=O)c3cc(OC)ccc3[nH]2)c1
Result: active

Q: # lookup: test call for CCOC(=O)c1sc(-c2ccc(OS(=O)(=O)c3ccc(Br)s3)c(C=O)c2)nc1C
Result: inactive

Q: # lookup: test call for [Cl-].[O-]/N=C(\c1ccccc1)c1ccccn1.[O-]/N=C(\c1ccccc1)c1ccccn1.[O-]/N=C(\c1ccccc1)c1ccccn1.[Sm+3]
Result: inactive

Q: # lookup: test call for COc1ccc2c(c1)C(=O)c1c-2n(CCCN=[N+]=[N-])c(=O)c2cc(OC)c(OC)cc12
Result: inactive

Q: # lookup: test call for COc1ccc(S(=O)(=O)N2CC(C)(C)CN(S(=O)(=O)c3ccc(OC)cc3)C2C(=O)NO)cc1
Result: inactive

----------
Field: TGI. Provide a value for each of the compounds that follow.
# Test system: TK-10 renal
# test summary: NCI tumour cell line growth inhibition, 48 h

Q: // fetch TK-10 renal TGI for [Cl][Hg][Cl]
Result: 31.5 µM

Q: // fetch TK-10 renal TGI for COC(=O)C1C/C(=C/N(C)C)C(=S)N1 (configuration not stated)
Result: > 100 µM

Q: // fetch TK-10 renal TGI for O=C(c1ccc(Cl)cc1)c1ccc(OCCCOc2ccc(C(=O)c3ccc(Cl)cc3)cc2)cc1
Result: > 100 µM

Q: // fetch TK-10 renal TGI for Fc1ccc2[nH]cc(-c3nonc3-c3c[nH]c4ccc(Br)cc34)c2c1
Result: 6.63 µM

Q: // fetch TK-10 renal TGI for Cc1ccc(S(=O)(=O)N/N=C(\c2nc3ccc(Cl)cc3[nH]c2=O)C(O)c2cccc([N+](=O)[O-])c2)cc1 (configuration not stated)
Result: > 100 µM

Q: // fetch TK-10 renal TGI for CN1CCCC2(CCCc3ccccc32)C1 (configuration not stated)
Result: > 100 µM

Q: // fetch TK-10 renal TGI for Nc1nc(SCc2ccc([N+](=O)[O-])cc2)nc2c1ncn2C1OC(COP(=O)(O)O)C(O)C1O (configuration not stated)
Result: > 100 µM

Q: // fetch TK-10 renal TGI for O=C1c2ccc(O)cc2C(=O)c2ccc(O)cc21
Result: > 100 µM

Q: // fetch TK-10 renal TGI for CC1=Nc2nc(Cl)cn2C(=O)C1(Cl)Cl
Result: > 10 µM

Q: // fetch TK-10 renal TGI for N#CCc1n[nH]c(Cc2ccccc2)n1
Result: > 100 µM

Q: // fetch TK-10 renal TGI for CC(C)CCC(=O)c1ccoc1
Result: > 100 µM

Q: // fetch TK-10 renal TGI for C=C(COC(C)=O)CC(OC(C)=O)c1ccccc1 (configuration not stated)
Result: > 100 µM
